# System: IGROV1 ovarian
# Experiment: NCI tumour cell line growth inhibition, 48 h
Value type: TGI (µM)
# value in µM; strip the unit string

CCOP1(=O)C=C(C)C(=C(Cl)Cl)C(C)=C1 (stereo not drawn) :: 90.9
CCOC(=O)C(Cc1ccc(N(CCCl)CCCl)cc1)NC(=O)CCCN1C(=O)CN=C(c2ccccc2)c2cc(Cl)ccc21 (stereo not drawn) :: 16.9
CN(C)CCNC(=O)NC[C@H]1CC[C@@H]2[C@H](O1)c1cc(C(F)(F)F)ccc1N[C@H]2c1ccccc1 :: 40.7

// next entry
Return TGI measured with IGROV1 ovarian given this molecule: CN(C)c1ccc(N=C2C=CC(=O)c3ccccc32)cc1
9.28
